method_notes: IVIVE: steady-state concentration (Css), generic HTTK model
Design: species or system human
condition_description: human steady-state concentration, 1 mg/kg/day exposure rate, loss of parent compound only
Method: IVIVE was performed as previously described to calculate human steady-state concentrations (Css). Briefly, experimental plasma protein binding data presented elsewhere were transformed to fraction unbound in blood using blood-to-plasma partitioning values. Experimental Clint values generated here are used in conjunction with relevant liver scalars to scale up to estimate whole liver clearance. […]
Is Css at least 20 µM? Then Y. If not, N.

// query Could you tell me if the measured Css of `O=S(=O)(O)C(F)(F)C(F)(F)C(F)(F)C(F)(F)C(F)(F)C(F)(F)C(F)(F)F` reaches 20 µM or more?
// result Y

// query Proceed to `O=C(O)C(F)(F)C(F)(F)C(F)(F)C(F)(F)F`
// result Y

// query Proceed to `O=C(O)C(F)(F)C(F)(F)C(F)(F)C(F)(F)C(F)(F)F`
// result Y

// query Proceed to `O=C(O)C(F)(F)C(F)(F)C(F)(F)C(F)(F)C(F)(F)C(F)(F)C(F)F`
// result Y

// query Proceed to `O=C(O)CCC(F)(F)C(F)(F)C(F)(F)C(F)(F)C(F)(F)C(F)(F)C(F)(F)F`
// result N

// query Proceed to `O=C(O)C(F)(F)C(F)(F)C(F)(F)C(F)(F)C(F)(F)C(F)(F)C(F)(F)C(F)(F)C(F)(F)F`
// result Y

// query Proceed to `O=S(=O)(O)C(F)(F)C(F)(F)C(F)(F)C(F)(F)C(F)(F)C(F)(F)F`
// result Y

// query Proceed to `O=C(O)C(F)(F)C(F)(F)C(F)(F)C(F)(F)C(F)(F)C(F)(F)C(F)(F)C(F)(F)F`
// result Y

// query Proceed to `O=S(=O)(O)CCC(F)(F)C(F)(F)C(F)(F)C(F)(F)F`
// result N

// query Proceed to `O=S(=O)(O)CCC(F)(F)C(F)(F)C(F)(F)C(F)(F)C(F)(F)C(F)(F)F`
// result N

// query Proceed to `O=S(=O)(O)C(F)(F)C(F)(F)C(F)(F)C(F)(F)F`
// result N

// query Proceed to `O=C(O)C(F)(F)C(F)(F)C(F)(F)C(F)(F)C(F)(F)C(F)(F)C(F)(F)F`
// result Y

----------
Would you mind telling me the reported CLint for HTTK of each entry?
Test system: pooled primary human hepatocyte suspensions
method_notes: Hepatic clearance assay (substrate depletion, LC-MS)
condition_description: CLint value carried into HTTK/IVIVE; in µL/min/10^6 cells
Give a plain numeric answer without units written out.

// query Could you tell me which CLint for HTTK is on file for `O=S(=O)(O)CCC(F)(F)C(F)(F)C(F)(F)C(F)(F)C(F)(F)C(F)(F)C(F)(F)C(F)(F)F` ?
// result 1.53

// query Proceed to O=C(O)C(F)(F)C(F)(F)C(F)(F)C(F)(F)C(F)(F)C(F)(F)C(F)(F)C(F)F [9-H-Perfluorononanoic acid (9H-PFNA)]
// result 0

// query Proceed to `O=S(=O)([O-])C(F)(F)C(F)(F)C(F)(F)C(F)(F)F.[K+]`
// result 0

// query Proceed to O=S(=O)(O)C(F)(F)C(F)(F)C(F)(F)C(F)(F)C(F)(F)C(F)(F)C(F)(F)C(F)(F)F [Perfluorooctane sulfonate (PFOS)]
// result 0

// query Proceed to `CCNS(=O)(=O)C(F)(F)C(F)(F)C(F)(F)C(F)(F)C(F)(F)C(F)(F)C(F)(F)C(F)(F)F`
// result 8.96

// query Proceed to O=C(O)C(F)(F)C(F)(F)C(F)(F)C(F)(F)C(F)(F)C(F)(F)C(F)(F)F [Perfluorooctanoic acid (PFOA)]
// result 0

// query Proceed to O=C(O)C=CC(F)(C(F)(F)F)C(F)(F)F [3-(Perfluoroisopropyl)-2-propenoic acid]
// result 0

----------
System: pooled primary human hepatocyte suspensions
method_notes: Hepatic clearance assay (substrate depletion, LC-MS)
condition_description: CLint value carried into HTTK/IVIVE; in µL/min/10^6 cells
property_name: CLint for HTTK
Give a plain numeric answer without units written out.

// query Could you tell me which CLint for HTTK is on file for O=C([O-])C(F)(F)C(F)(F)C(F)(F)C(F)(F)C(F)(F)C(F)(F)C(F)(F)F.[Na+] [Sodium perfluorooctanoate (NaPFOA)] ?
// result 0

// query Proceed to `O=C(O)C(F)(F)C(F)(F)C(F)(F)OC(F)(C(F)(F)F)C(F)(F)F`
// result 5.78

// query Proceed to `O=C(O)CCC(F)(F)C(F)(F)C(F)(F)C(F)(F)C(F)(F)F`
// result 11.84

// query Proceed to `O=S(=O)(O)CCC(F)(F)C(F)(F)C(F)(F)C(F)(F)F`
// result 4.28

// query Proceed to NS(=O)(=O)C(F)(F)C(F)(F)C(F)(F)C(F)(F)C(F)(F)C(F)(F)C(F)(F)C(F)(F)F [Perfluorooctane sulfonamide (PFOSA)]
// result 17.84

// query Proceed to `O=C(O)C(F)(F)C(F)(F)C(F)(F)C(F)(F)F`
// result 0

// query Proceed to `O=C(O)C(F)(F)C(F)(F)C(F)(F)C(F)(F)C(F)(F)F`
// result 0

// query Proceed to `O=C(O)C(F)(F)C(F)(F)C(F)F`
// result 0

// query Proceed to `O=C(O)C(F)(F)C(F)(F)F`
// result 0

// query Proceed to O=S(=O)(O)C(F)(F)C(F)(F)C(F)(F)C(F)(F)C(F)(F)C(F)(F)C(F)(F)C(F)(F)F [Perfluorooctanesulfonate (PFOS-)]
// result 0

// query Proceed to `O=S(=O)(O)C(F)(F)C(F)(F)C(F)(F)C(F)(F)F`
// result 4.75

// query Proceed to `O=C(O)CCC(F)(F)C(F)(F)C(F)(F)C(F)(F)C(F)(F)C(F)(F)C(F)(F)F`
// result 13.21

// query Proceed to `O=S(=O)(OCC(F)(F)F)C(F)(F)C(F)(F)C(F)(F)C(F)(F)F`
// result 0

// query Proceed to `O=C(Cl)C(F)(F)C(F)(F)C(F)(F)C(F)(F)C(F)(F)C(F)(F)C(F)(F)F`
// result 0

// query Proceed to `O=C(O)CCC(F)(F)C(F)(F)C(F)(F)F`
// result 0

// query Proceed to `O=C(O)C(F)(F)C(F)(F)C(F)(F)C(F)(F)C(F)(F)C(F)(F)C(F)F`
// result 0

----------
method_notes: Administered equivalent dose (AED) by reverse dosimetry
Design: species or system human
condition_description: from Css and AC50 POD by reverse dosimetry
Would you mind telling me the reported log10 of AED of each entry?
Please interpret these as log10 of AED where AED is in mg/kg/day.

// query Could you tell me which log10 of AED is on file for `O=C(O)CCC(F)(F)C(F)(F)C(F)(F)C(F)(F)C(F)(F)C(F)(F)C(F)(F)F` ?
// result -0.72

// query Proceed to `O=C(O)C(F)(F)C(F)(F)C(F)(F)C(F)(F)C(F)(F)C(F)(F)C(F)(F)C(F)(F)C(F)(F)F`
// result -1.22

// query Proceed to O=C(O)C(F)(F)C(F)(F)C(F)(F)C(F)(F)C(F)(F)C(F)(F)C(F)(F)C(F)(F)C(F)(F)C(F)F [11H-PFUnDA, 11-H-Perfluoroundecanoic acid]
// result -1.52

// query Proceed to `O=C(O)C(F)(F)C(F)(F)C(F)(F)C(F)(F)C(F)(F)C(F)(F)F`
// result -2.00

// query Proceed to `O=C(O)C(F)(F)C(F)(F)C(F)(F)C(F)(F)C(F)(F)F`
// result -1.10

// query Proceed to `O=S(=O)(O)C(F)(F)C(F)(F)C(F)(F)C(F)(F)F`
// result -0.08

----------
Would you mind telling me the reported Css (uM) of each entry?
method_notes: IVIVE: steady-state concentration (Css), generic HTTK model
Design: species or system human
condition_description: Assuming 1 mg/kg/day dose rate; BW 70 kg
Numbers only here, please. The scale is µM.

// query Could you tell me which Css (uM) is on file for O=C(O)C(F)(F)C(F)(F)C(F)(F)C(F)(F)C(F)(F)C(F)(F)C(F)F [8H-Perfluorooctanoic acid (8H-PFOA)] ?
// result 290.23

// query Proceed to O=C(O)C=CC(F)(C(F)(F)F)C(F)(F)F [3-(Perfluoroisopropyl)-2-propenoic acid]
// result 10.03

// query Proceed to O=C(O)CCC(F)(F)C(F)(F)C(F)(F)C(F)(F)C(F)(F)C(F)(F)C(F)(F)F [7:3 FTCA, 3-Perfluoroheptylpropanoic acid]
// result 4.99

// query Proceed to `O=C(O)C(F)(F)OC(F)(F)C(F)(F)OC(F)(F)F`
// result 263.04

// query Proceed to O=S(=O)(O)C(F)(F)C(F)(F)C(F)(F)C(F)(F)C(F)(F)C(F)(F)C(F)(F)C(F)(F)F [Perfluorooctane sulfonate (PFOS)]
// result 98.52

// query Proceed to O=C(O)C(F)(F)C(F)(F)C(F)(F)C(F)(F)F [Perfluoropentanoic acid (PFPeA)]
// result 20.78

// query Proceed to `O=C(O)C(F)(F)C(F)(F)C(F)(F)OC(F)(C(F)(F)F)C(F)(F)F`
// result 30.05

// query Proceed to `C[N+](C)(C)CCCNS(=O)(=O)C(F)(F)C(F)(F)C(F)(F)C(F)(F)C(F)(F)C(F)(F)C(F)(F)C(F)(F)F.[I-]`
// result 31.97

// query Proceed to `O=S(=O)(O)CCC(F)(F)C(F)(F)C(F)(F)C(F)(F)C(F)(F)C(F)(F)F`
// result 12.36

Each recorded value in this set is attributed to paper PMC11435625.
